test: Cytotoxicity against human Huh7 cells harboring con1 replicon after 3 days by MTT assay; format: cell-based, Huh-7
Please go through the items and note down their CC50 at 72 h.
Could you give me the number in µM? Just the number is fine.

Task: Any idea what its CC50 at 72 h is? The compound is OC[C@H]1O[C@@H](n2cnc3c(CCN4CCOCC4)ncnc32)[C@H](O)[C@@H]1O
Result: 31

Task: Any idea what its CC50 at 72 h is? The compound is CN(C)CCc1ncnc2c1ncn2[C@@H]1O[C@H](CO)[C@@H](O)[C@H]1O
Result: 20

Task: Any idea what its CC50 at 72 h is? The compound is CCCCN(CCCC)CCc1ncnc2c1ncn2[C@@H]1O[C@H](CO)[C@@H](O)[C@H]1O
Result: 37

Task: Any idea what its CC50 at 72 h is? The compound is OC[C@H]1O[C@@H](n2cnc3c(/C=C/N4CCOCC4)ncnc32)[C@H](O)[C@@H]1O
Result: 23

###

experiment: Cytotoxicity against human Huh7 cells harboring con1 replicon after 3 days by MTT assay; assay type: cell-based, Huh-7
# T = CC50 at 72 h below 5 µM (exclusive); F = CC50 at 72 h at/above 5 µM

Task: Regarding COC(=O)CSCCc1ncnc2c1ncn2[C@@H]1O[C@H](CO)[C@@H](O)[C@H]1O , kindly confirm whether its CC50 at 72 h is beneath 5 µM.
Result: F

Task: Regarding OC[C@H]1O[C@@H](n2cnc3c(CCSc4nc5ccccc5s4)ncnc32)[C@H](O)[C@@H]1O , kindly confirm whether its CC50 at 72 h is beneath 5 µM.
Result: F

Task: Regarding CCN(CC)CCc1ncnc2c1ncn2[C@@H]1O[C@H](CO)[C@@H](O)[C@H]1O , kindly confirm whether its CC50 at 72 h is beneath 5 µM.
Result: F

Task: Regarding OC[C@H]1O[C@@H](n2cnc3c(/C=C/N4CCCCC4)ncnc32)[C@H](O)[C@@H]1O , kindly confirm whether its CC50 at 72 h is beneath 5 µM.
Result: F

Task: Regarding CCCCN(/C=C/c1ncnc2c1ncn2[C@@H]1O[C@H](CO)[C@@H](O)[C@H]1O)CCCC , kindly confirm whether its CC50 at 72 h is beneath 5 µM.
Result: T

Task: Regarding CSCCc1ncnc2c1ncn2[C@@H]1O[C@H](CO)[C@@H](O)[C@H]1O , kindly confirm whether its CC50 at 72 h is beneath 5 µM.
Result: F

Task: Regarding OC[C@H]1O[C@@H](n2cnc3c(CCN4CCCCC4)ncnc32)[C@H](O)[C@@H]1O , kindly confirm whether its CC50 at 72 h is beneath 5 µM.
Result: F

Task: Regarding CN(/C=C/c1ncnc2c1ncn2[C@@H]1O[C@H](CO)[C@@H](O)[C@H]1O)Cc1ccccc1 , kindly confirm whether its CC50 at 72 h is beneath 5 µM.
Result: T

###

system: HL-60; assay: Cytostatic activity against human HL60 cells ATCC CCL 240 assessed as growth reduction after 72 hrs; assay type: functional, cell-based; settings: HL-60, 72 h
Please go through the items and note down their pIC50.
Hey, just a heads up that pIC50 is the negative log base 10 of the concentration in molar.

Task: Identify the measured pIC50 of CN(C)/C=C/c1ncnc2c1ncn2[C@@H]1O[C@H](CO)[C@@H](O)[C@H]1O for HL-60.
Result: 5.48

Task: Identify the measured pIC50 of CCCCN(CCCC)CCc1ncnc2c1ncn2[C@@H]1O[C@H](CO)[C@@H](O)[C@H]1O for HL-60.
Result: 5.28

Task: Identify the measured pIC50 of CCCCN(/C=C/c1ncnc2c1ncn2[C@@H]1O[C@H](CO)[C@@H](O)[C@H]1O)CCCC for HL-60.
Result: 5.14

Task: Identify the measured pIC50 of CCN(CC)CCc1ncnc2c1ncn2[C@@H]1O[C@H](CO)[C@@H](O)[C@H]1O for HL-60.
Result: 5.17

Task: Identify the measured pIC50 of OC[C@H]1O[C@@H](n2cnc3c(/C=C/N4CCCCC4)ncnc32)[C@H](O)[C@@H]1O for HL-60.
Result: 5.64

Task: Identify the measured pIC50 of CN(CCc1ncnc2c1ncn2[C@@H]1O[C@H](CO)[C@@H](O)[C@H]1O)Cc1ccccc1 for HL-60.
Result: 4.95

Task: Identify the measured pIC50 of CN(/C=C/c1ncnc2c1ncn2[C@@H]1O[C@H](CO)[C@@H](O)[C@H]1O)Cc1ccccc1 for HL-60.
Result: 5.44

Task: Identify the measured pIC50 of CCN(/C=C/c1ncnc2c1ncn2[C@@H]1O[C@H](CO)[C@@H](O)[C@H]1O)CC for HL-60.
Result: 5.64

Task: Identify the measured pIC50 of OC[C@H]1O[C@@H](n2cnc3c(/C=C/N4CCOCC4)ncnc32)[C@H](O)[C@@H]1O for HL-60.
Result: 5.35

Task: Identify the measured pIC50 of O=c1[nH]c(=O)n([C@H]2C[C@H](O)[C@@H](CO)O2)cc1F for HL-60.
Result: 7.92

###

assay: Cytotoxicity against human MT4 cells after 5 days; type: cell-based
readout_name: CC50 at 120 h (µM)
Could you give me the number in µM? Just the number is fine.

Task: Any idea what its CC50 at 120 h is? The molecule is COCCc1ncnc2c1ncn2[C@@H]1O[C@H](CO)[C@@H](O)[C@H]1O
Result: 13

Task: Any idea what its CC50 at 120 h is? The molecule is OC[C@H]1O[C@@H](n2cnc3c(CCN4CCOCC4)ncnc32)C[C@@H]1O
Result: 13

Task: Any idea what its CC50 at 120 h is? The molecule is OC[C@H]1O[C@@H](n2cnc3c(/C=C/N4CCCCC4)ncnc32)[C@H](O)[C@@H]1O
Result: 6

###

Please go through the items and note down their CC50 at 72 h.
experiment: Cytotoxicity against human Huh7 cells harboring con1 replicon after 3 days by MTT assay; assay type: cell-based, Huh-7

Task: Any idea what its CC50 at 72 h is? The compound is OC[C@H]1O[C@@H](n2cnc3c(CCN4CCOCC4)ncnc32)C[C@@H]1O
Result: > 100 µM

Task: Any idea what its CC50 at 72 h is? The compound is OC[C@H]1O[C@@H](n2cnc3c(CC4SCCS4)ncnc32)[C@H](O)[C@@H]1O
Result: > 100 µM

Task: Any idea what its CC50 at 72 h is? The compound is CCN(/C=C/c1ncnc2c1ncn2[C@@H]1O[C@H](CO)[C@@H](O)[C@H]1O)CC
Result: 8 µM

Task: Any idea what its CC50 at 72 h is? The compound is CN(C)CCc1ncnc2c1ncn2[C@H]1C[C@H](O)[C@@H](CO)O1
Result: > 250 µM

Task: Any idea what its CC50 at 72 h is? The compound is CN(CCc1ncnc2c1ncn2[C@@H]1O[C@H](CO)[C@@H](O)[C@H]1O)Cc1ccccc1
Result: 132 µM
